target: HIV-1 protease (Q7S) (Human immunodeficiency virus type 1 group M subtype B, UniProt P04585, Q495S); construct: made in house; assay: HIV-1 Protease RET Assay; type: biochemical; details: Ave. Ki (nM), RET assay, Q7S enzyme, pH 4.8, 37 C
RECORDED METRIC: Ki

# annotated cases, reported Ki shown
COMPOUND	RECORDED METRIC	MEASUREMENT
Cc1nc(C)c(C(=O)N[C@@H](Cc2ccccc2)[C@H](O)C(=O)N2CSC(C)(C)[C@H]2C(=O)NCc2ccccc2C)s1	Ki	1.2 nM
Cc1ccccc1CNC(=O)[C@H]1N(C(=O)[C@@H](O)[C@H](Cc2ccccc2)NC(=O)c2cccc(O)n2)CSC1(C)C	Ki	12 nM
Cc1ccccc1CNC(=O)C1N(C(=O)C(O)C(Cc2ccccc2)NC(=O)c2c(C)c(=O)on2C)CSC1(C)C (stereo not drawn)	Ki	< 0.1 nM
Cc1c(O)cccc1C(=O)N[C@@H](Cc1ccccc1)[C@H](O)C(=O)N1CSC(C)(C)[C@H]1C(=O)NCc1ccc(C(F)(F)F)cc1	Ki	4 nM
CC(=O)Nc1cccc(CNC(=O)[C@H]2N(C(=O)[C@@H](O)[C@H](Cc3ccccc3)NC(=O)c3cccc(O)c3C)CSC2(C)C)c1	Ki	< 0.1 nM

Asked: Recorded Ki for Cc1c(O)cccc1C(=O)N[C@@H](Cc1ccccc1)[C@H](O)C(=O)N1CSC(C)(C)[C@H]1C(=O)NCCC(F)(F)F , please?
Given back: 0.51 nM
